tested on: Escherichia coli TOP10; experiment: shrunken log2 fold change of peptide-encoding DNA abundance (4.5 h post-induction vs induction); higher = less antimicrobial activity (less host growth inhibition); conditions: time post-induction: 4.5 h; library: site-saturation at positions 5, 18, 19, 20;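 note: peptides expressed intracellularly from a pBAD plasmid library in pooled LB shake-flask culture, induced with 0.3% L-arabinose, DNA abundance read by NGS, three biological replicates, DESeq2 with apeglm shrinkage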
MEASURED QUANTITY: shrunken log2 fold change

{"BIOPOLYMER SEQUENCE": "RRIRNRPPRLPRPRPRPSLAPRP", "TESTED ON": "Escherichia coli TOP10", "TEST VALUE": 0.0683}
{"BIOPOLYMER SEQUENCE": "RRIRCRPPRLPRPRPRPIADPRP", "TESTED ON": "Escherichia coli TOP10", "TEST VALUE": -0.107}
{"BIOPOLYMER SEQUENCE": "RRIRQRPPRLPRPRPRPAMKPRP", "TESTED ON": "Escherichia coli TOP10", "TEST VALUE": -0.204}
{"BIOPOLYMER SEQUENCE": "RRIRARPPRLPRPRPRPMEPPRP", "TESTED ON": "Escherichia coli TOP10", "TEST VALUE": 0.0999}
{"BIOPOLYMER SEQUENCE": "RRIRSRPPRLPRPRPRPGEFPRP", "TESTED ON": "Escherichia coli TOP10", "TEST VALUE": -0.181}
{"BIOPOLYMER SEQUENCE": "RRIRVRPPRLPRPRPRPHNRPRP", "TESTED ON": "Escherichia coli TOP10", "TEST VALUE": -0.241}
{"BIOPOLYMER SEQUENCE": "RRIRPRPPRLPRPRPRPGGEPRP", "TESTED ON": "Escherichia coli TOP10", "TEST VALUE": 0.601}
{"BIOPOLYMER SEQUENCE": "RRIRKRPPRLPRPRPRPKYEPRP", "TESTED ON": "Escherichia coli TOP10", "TEST VALUE": 0.057}

Every entry's value here was drawn from the supplement of paper PMC9112550.
